B1: LINE1-full (parent)
chain: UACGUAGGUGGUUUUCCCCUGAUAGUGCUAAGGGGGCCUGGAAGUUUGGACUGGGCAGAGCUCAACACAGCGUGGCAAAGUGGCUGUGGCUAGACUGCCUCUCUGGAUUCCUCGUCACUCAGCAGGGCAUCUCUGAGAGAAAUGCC

# Variants of: B1
# Experiment: self-cleavage, relative activity (ratio to wild type); higher = more cleavage; in vitro, sequencing; the parent is a self-cleaving ribozyme
Would you mind labelling by self-cleavage? At or over 0.9 is 1.0, under is 0.0.

Say whether G75A U134A shows self-cleavage of 0.9 or more.
1.0

Say whether A107G A124U shows self-cleavage of 0.9 or more.
1.0

Say whether G53U A65U shows self-cleavage of 0.9 or more.
0.0

Say whether G10U G97A shows self-cleavage of 0.9 or more.
0.0

Say whether A6G U62C shows self-cleavage of 0.9 or more.
0.0

Say whether G70C G144A shows self-cleavage of 0.9 or more.
0.0

Say whether C37G U102C shows self-cleavage of 0.9 or more.
1.0

Say whether A6U C56U shows self-cleavage of 0.9 or more.
0.0

Say whether U12G U134C shows self-cleavage of 0.9 or more.
1.0

Say whether U87A A140U shows self-cleavage of 0.9 or more.
0.0

Say whether C98A U130C shows self-cleavage of 0.9 or more.
0.0

Say whether A31G U115C shows self-cleavage of 0.9 or more.
1.0

Say whether A94U C113U shows self-cleavage of 0.9 or more.
0.0

Say whether U45C U81A shows self-cleavage of 0.9 or more.
1.0

Say whether C3U U85A shows self-cleavage of 0.9 or more.
0.0

Say whether U62A U143C shows self-cleavage of 0.9 or more.
0.0

Say whether U102C G125U shows self-cleavage of 0.9 or more.
1.0

Say whether U13A U102C shows self-cleavage of 0.9 or more.
0.0

Say whether U5G U112C shows self-cleavage of 0.9 or more.
0.0

Say whether U13C U100G shows self-cleavage of 0.9 or more.
1.0

Say whether U12A C18G shows self-cleavage of 0.9 or more.
1.0

Say whether G41C shows self-cleavage of 0.9 or more.
1.0

Say whether U14C U39A shows self-cleavage of 0.9 or more.
1.0

Say whether G32C U81C shows self-cleavage of 0.9 or more.
0.0

Say whether A50U C63A shows self-cleavage of 0.9 or more.
0.0

Say whether A65C A129G shows self-cleavage of 0.9 or more.
0.0

Say whether C76A U102C shows self-cleavage of 0.9 or more.
1.0

Say whether A92U U109C shows self-cleavage of 0.9 or more.
0.0

Say whether C19U A67U shows self-cleavage of 0.9 or more.
0.0

Say whether U13G C99U shows self-cleavage of 0.9 or more.
0.0

Say whether G25A A67G shows self-cleavage of 0.9 or more.
0.0

Say whether A79G A117G shows self-cleavage of 0.9 or more.
1.0

Say whether C116A shows self-cleavage of 0.9 or more.
1.0

Say whether G75A U102A shows self-cleavage of 0.9 or more.
1.0

Say whether A57G U87A shows self-cleavage of 0.9 or more.
0.0

Say whether U96A U112C shows self-cleavage of 0.9 or more.
0.0

Say whether U46G A65G shows self-cleavage of 0.9 or more.
0.0

Say whether U102C U112C shows self-cleavage of 0.9 or more.
1.0

Say whether G49U U143C shows self-cleavage of 0.9 or more.
0.0

Say whether A79G G105U shows self-cleavage of 0.9 or more.
1.0

Say whether C37G U45A shows self-cleavage of 0.9 or more.
0.0

Say whether A94U U112G shows self-cleavage of 0.9 or more.
0.0

Say whether A78G A124C shows self-cleavage of 0.9 or more.
1.0

Say whether U62C G127A shows self-cleavage of 0.9 or more.
0.0

Say whether U1C G35A shows self-cleavage of 0.9 or more.
0.0

Say whether C56G A79G shows self-cleavage of 0.9 or more.
0.0

Say whether U96A G144A shows self-cleavage of 0.9 or more.
0.0

Say whether C3U A59G shows self-cleavage of 0.9 or more.
0.0

Say whether U39A A57G shows self-cleavage of 0.9 or more.
0.0

Say whether G106A A142U shows self-cleavage of 0.9 or more.
1.0

Say whether U45C A67U shows self-cleavage of 0.9 or more.
0.0

Say whether U20C U104C shows self-cleavage of 0.9 or more.
1.0

Say whether A77U G89A shows self-cleavage of 0.9 or more.
0.0

Say whether U1A U46G shows self-cleavage of 0.9 or more.
1.0

Say whether A78G G93A shows self-cleavage of 0.9 or more.
0.0

Say whether G105U G144A shows self-cleavage of 0.9 or more.
1.0

Say whether C63U U132C shows self-cleavage of 0.9 or more.
0.0

Say whether U20A A117C shows self-cleavage of 0.9 or more.
1.0

Say whether C51U A124U shows self-cleavage of 0.9 or more.
1.0

Say whether U26A C84U shows self-cleavage of 0.9 or more.
0.0

Say whether C18U A94G shows self-cleavage of 0.9 or more.
0.0

Say whether G21U U115C shows self-cleavage of 0.9 or more.
1.0

Say whether U9A A59G shows self-cleavage of 0.9 or more.
0.0

Say whether U39A A59U shows self-cleavage of 0.9 or more.
1.0

Say whether G4C A64G shows self-cleavage of 0.9 or more.
1.0

Say whether U109C A124C shows self-cleavage of 0.9 or more.
1.0
